target: T1, cTnI quality control product recombinant protein (human, UniProt P19429 2-210, limits assumed); assay: sandwich ELISA, antibody 1.372 ng/ml on anti-mouse IgG, cTnI 0.15 ug/ml, HRP second mAb
T1 construct: treated as the same molecule; also called cTnI antigen; cardiac troponin I
T1 sequence (P19429 2-210 limits assumed): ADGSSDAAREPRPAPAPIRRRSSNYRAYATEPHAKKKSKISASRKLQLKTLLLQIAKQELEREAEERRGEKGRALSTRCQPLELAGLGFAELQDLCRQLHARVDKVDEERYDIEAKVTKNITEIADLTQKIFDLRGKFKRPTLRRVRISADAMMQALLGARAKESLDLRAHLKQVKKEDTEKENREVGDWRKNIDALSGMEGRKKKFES
assay.metric: OD450 (ref. 630 nm) (OD)
Provide the reading as a plain figure in OD.

Answered cases to consult:
1) Mutation 2 (antibody, V domains shown, Built as m3, with this row's residues) VH: EVQLQQSGPELVKPGASVKMSCKASGYSFTLYVVHWVKQKPGQGLEWIGYIQPYLDGTKYNEKFKGKATLTVDKSSSTAFMELSSLTSEDSAVYYCARSGYGGYGLAWLAYWGQGTLVTVSA VL: QAVVIQESALTTSPGETVTLTCRSSTGAATTSQYANWVQEKPDHLFTGLIGGSNNRVPGVPARFSGSLIGDKAALTITGAQTEDEAIYFCAIVYSNHWVFGGGTKLTVLG	0.421
2) Anti-cTnI-21C5 monoclonal antibody (recombinant) (antibody, mouse IgG2b, V domains shown, also called WT; Sample 1) VH: EVQLQQSGPELVKPGASVKMSCKASGYSFTLYVVHWVKQKPGQGLEWIGYIQPYLDGTRYNEKFKGKATLTVDKSSSTAFMELSSLTSEDSAVYYCARTGYGGYGLAWLAYWGQGTLVTVSA VL: QAVVIQESALTTSPGETVTLTCRSSSGAATTSQYANWVQEKPDHLFTGLIGGSNNRAPGVPARFSGSLIGDKAALTITGAQTEDEAIYFCAIVYSNHWVFGGGTKLTVLG	0.612
3) Mutation 1 (antibody, V domains shown, CDR mutant of WT) VH: EVQLQQSGPELVKPGASVKMSCKASGYTFTLYVVHWVKQKPGQGLEWIGYIQPYLDGTKYNEKFKGKATLTVDKSSSTAFMELSSLTSEDSAVYYCARSGYGGYGLAWLAYWGQGTLVTVSA VL: QAVVIQESALTTSPGETVTLTCRSSTGAATTSQYANWVQEKPDHLFTGLIGGSNNRAPGVPARFSGSLIGDKAALTITGAQTEDEAIYFCALVYSNHWVFGGGTKLTVLG	0.94

Value of OD450 (ref. 630 nm) reported for the binder Mutation 3 (antibody, V domains shown, Built as m3, with this row's residues) VH: EVQLQQSGPELVKPGASVKMSCKASGYTFTLYVVHWVKQKPGQGLEWIGYIQPYLDGTHYNEKFKGKATLTVDKSSSTAFMELSSLTSEDSAVYYCARSGYGGYGLAWLAYWGQGTLVTVSA VL: QAVVIQESALTTSPGETVTLTCRSSSGAATTSQYANWVQEKPDHLFTGLIGGSNNRIPGVPARFSGSLIGDKAALTITGAQTEDEAIYFCAAVYSNHWVFGGGTKLTVLG is 0.15
